- system-name: human CB1 receptor (Homo sapiens)
- test-name: biochemical
- Type: binding
- Parameters: purchased Merck HTS019M; host or cells: Chem-1 cells
- condition-details: [3H]CP-55,940 displacement, membranes of Chem-1 cells expressing human CB1
test-readout: pKi ± SEM

Field: example entries. Status: answers known.
>>> result("CCCS(=O)(=O)Nc1ccc(F)c(C(=O)c2c[nH]c3ncc(-c4ccc(Cl)cc4)cc23)c1F")
"no activity"
>>> result("COc1cc2c(cc1OC)[C@@H](Cc1ccc(O)c(Oc3cc4c(cc3OC)CCN(C)[C@@H]4Cc3ccc(O)cc3)c1)N(C)CC2")
"no activity"
>>> result("OCC1=C[C@@H](O)[C@]2(O[C@@H]3O[C@H](CO)[C@@H](O)[C@H](O)[C@H]3O[C@@H]3O[C@H](CO)[C@@H](O)[C@H](O)[C@H]3O)C=CO[C@@H](O[C@@H]3O[C@H](CO)[C@@H](O)[C@H](O)[C@H]3O)[C@H]12 [Compound 19, Rehmannioside D]")
"no activity"
>>> result("CC(C)=CCC[C@](C)(O)[C@H]1CC[C@]2(C)[C@@H]1[C@H](O)C[C@@H]1[C@@]3(C)CC[C@H](O)C(C)(C)[C@@H]3[C@@H](O)C[C@]12C [Compound 10, (20S)-Protopanaxatriol]")
"no activity"

Moving on to another molecule below.
### Prompt Can you look up the measured pKi ± SEM of COc1ccc(-c2nc(C(=O)NCCc3ccc(Cl)cc3Cl)cc3c2[nH]c2ccccc23)cc1OC for me?
### Response 4.35 ± 0.09

----------
Would you mind telling me the reported Ki of each entry?
- system-name: UniProt:P21554
- test-name: biochemical
- Assay type: binding
- Parameters: purchased Merck HTS019M; host or cells: Chem-1 cells
- condition-details: [3H]CP-55,940 displacement, membranes of Chem-1 cells expressing human CB1; read-out: pKi ± SEM (converted)
Write down the numeric answer in µM and omit the unit.

### Prompt For the compound shown here, CCCSc1nc(N[C@@H]2C[C@H]2c2ccc(F)c(F)c2)c2nnn([C@@H]3C[C@H](OCCO)[C@@H](O)[C@H]3O)c2n1 , give the reported Ki.
### Response 36.3

### Prompt // query: CC(C)COc1ccc(CNC(=O)N(Cc2ccc(F)cc2)C2CCN(C)CC2)cc1
### Response 33.9

### Prompt Entry O=C1NCCN1CCN1CCC(c2cn(-c3ccc(F)cc3)c3ccc(Cl)cc23)CC1 please
### Response 41.7

### Prompt Further, for CC(C)=CCC/C(C)=C/Cc1cc(C2CC(=O)c3c(O)cc(O)cc3O2)c(O)cc1O (centres unmarked) ?
### Response 30.9

### Prompt What about this compound? COc1cc(C(C)=O)ccc1OCCCN1CCC(c2noc3cc(F)ccc23)CC1
### Response 89.1

### Prompt And the next one, COc1cc(-c2c3cn[nH]c3nc3c2oc2c(O)c(O)ccc23)ccc1OCc1ccc(C(C)C)cc1 ?
### Response 0.851

### Prompt Next: COc1ccc(-c2cc(-c3ccccc3)cc(-c3ccccc3O)n2)c(OC)c1
### Response 2.51

### Prompt Another compound: CC(C)OC(=O)CCC/C=C\C[C@@H]1[C@@H](/C=C/[C@@H](O)COc2cccc(C(F)(F)F)c2)[C@H](O)C[C@@H]1O
### Response 3.98

### Prompt Could you do the same for COc1cc(O)c2c(=O)cc(-c3ccc(OC)c(-c4c(O)cc(O)c5c(=O)cc(-c6ccc(O)cc6)oc45)c3)oc2c1 , please?
### Response 8.71

### Prompt Also, COc1ccccc1C(CCNC(C)c1ccc(Cl)cc1)c1ccc(OC(C)C)cc1 (centres unmarked) please.
### Response 2.69

### Prompt Can you check COc1ccc([C@@H](CC(=O)NCc2cccc3[nH]ccc23)c2cc3c(cc2O)OCO3)cc1 next?
### Response 6.31

----------
- system-name: human CB1 receptor (Homo sapiens)
- Type: biochemical
- condition-details: in words
test-readout: intrinsic activity

>>> result("COc1ccccc1C(CCNC(C)c1ccc(Cl)cc1)c1ccc(OC(C)C)cc1 (stereo not drawn) [Compound 34]")
"antagonists"
>>> result("COc1cc(O)c2c(=O)cc(-c3ccc(OC)c(-c4c(O)cc(O)c5c(=O)cc(-c6ccc(O)cc6)oc45)c3)oc2c1 [Compound 15, ginkgetin]")
"antagonists"

----------
- system-name: human CB1 receptor (Homo sapiens, UniProt P21554)
- Sequence (P21554 whole entry): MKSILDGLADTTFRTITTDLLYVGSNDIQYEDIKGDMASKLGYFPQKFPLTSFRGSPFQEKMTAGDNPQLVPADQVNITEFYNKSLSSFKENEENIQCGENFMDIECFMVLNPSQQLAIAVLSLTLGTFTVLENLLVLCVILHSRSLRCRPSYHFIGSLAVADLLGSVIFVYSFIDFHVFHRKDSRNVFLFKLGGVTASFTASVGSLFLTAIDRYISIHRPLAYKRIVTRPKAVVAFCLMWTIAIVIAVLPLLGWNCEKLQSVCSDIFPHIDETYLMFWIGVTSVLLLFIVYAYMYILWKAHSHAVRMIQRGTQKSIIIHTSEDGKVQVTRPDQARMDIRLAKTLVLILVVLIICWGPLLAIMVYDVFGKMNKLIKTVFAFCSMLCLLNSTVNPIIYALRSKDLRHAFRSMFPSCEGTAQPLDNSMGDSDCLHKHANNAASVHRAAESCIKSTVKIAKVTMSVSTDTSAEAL
- test-name: biochemical
- condition-details: read-out: CB1 inhibition IC50 (μM, 95% CI)
test-readout: IC50 (µM)
Write the answer as a number in µM, unit excluded.

### Prompt Reported IC50, compound COc1ccc(-c2cc(-c3ccccc3)cc(-c3ccccc3O)n2)c(OC)c1 : ____
### Response 140

### Prompt Quick one: COc1ccc([C@@H](CC(=O)NCc2cccc3[nH]ccc23)c2cc3c(cc2O)OCO3)cc1
### Response 40

----------
- system-name: human CB1 receptor (Homo sapiens)
- test-name: biochemical
- Assay type: binding
- Set-up: purchased Merck HTS019M; host or cells: Chem-1 cells
- condition-details: read-out: Ki (μM, 95% CI)
test-readout: log10(Ki) (log10 of the value in µM)
Could you please treat all values as log10 of Ki in µM?

### Prompt Which log10(Ki) value belongs to COc1ccc(-c2nc(C(=O)NCCc3ccc(Cl)cc3Cl)cc3c2[nH]c2ccccc23)cc1OC [Compound 35] ?
### Response 1.64

### Prompt Here is the next compound: CC(C)=CCCC1(C)C=Cc2c(ccc(C3CC(=O)c4c(O)cc(O)cc4O3)c2O)O1 (stereo not shown) [Compound 26, Sanggenon N]
### Response 1.28

### Prompt Subsequent entry: OCCN1CCN(CC/C=C2/c3ccccc3Sc3ccc(C(F)(F)F)cc32)CC1 [Compound 33, Flupentixol]
### Response 1.72

### Prompt What about this compound? CC(C)(O)[C@@H]1CC[C@](C)([C@H]2[C@@H](O)C[C@@]3(C)[C@@H]4C[C@H](O)[C@H]5C(C)(C)[C@@H](O)CC[C@@]56C[C@@]46CC[C@]23C)O1 [Compound 14, Cyclogalegenol]
### Response 2.24

### Prompt Query Cc1ccc(S(=O)(=O)NC(Cc2c[nH]c3ccccc23)C(=O)Oc2ccc3c4c(c(=O)oc3c2)CCC4)cc1 (racemic) [Compound 36] next
### Response 1.61

### Prompt Param item: COc1cc2c(cc1OC)CN(C(=O)NC(CCSC)C(=O)NC1CCCc3ccccc31)CC2 (racemic) [Compound 39]
### Response 1.60

### Prompt Likewise for Cc1c(O[C@H](C)C(=O)NC[C@@H](O)c2ccccc2)ccc2c(-c3ccccc3)cc(=O)oc12 (racemic) [Compound 25] ?
### Response 1.14
